Each record here notes measured Ki.
assay-system: TYK2 (Homo sapiens, UniProt P29597)
Sequence (P29597 873-1187): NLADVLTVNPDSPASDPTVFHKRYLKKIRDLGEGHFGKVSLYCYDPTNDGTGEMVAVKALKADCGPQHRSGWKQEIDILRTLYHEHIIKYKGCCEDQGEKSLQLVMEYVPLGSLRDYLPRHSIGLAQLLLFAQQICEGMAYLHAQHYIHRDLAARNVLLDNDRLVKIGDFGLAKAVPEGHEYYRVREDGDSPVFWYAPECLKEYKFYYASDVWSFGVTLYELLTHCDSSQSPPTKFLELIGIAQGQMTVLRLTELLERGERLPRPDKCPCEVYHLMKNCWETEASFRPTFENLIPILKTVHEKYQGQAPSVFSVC
quantity-kind: Ki (nM)

[[record]]
compound = "c1cc2c(ncc3ncn([C@@H]4C[C@H]5CC[C@@H](C4)N5)c32)[nH]1"
assay_system = "TYK2 (Homo sapiens, UniProt P29597)"
quantity_kind = "Ki"
numeric_readout = 323

[[record]]
compound = "CC(C)(C)OC(=O)N1CCC[C@@H](CN[C@H]2CC[C@H](n3cnc4cnc5[nH]ccc5c43)CC2)C1"
assay_system = "TYK2 (Homo sapiens, UniProt P29597)"
quantity_kind = "Ki"
numeric_readout = 260

[[record]]
compound = "N#CCC(=O)N1CCCCC(n2cnc3cnc4[nH]ccc4c32)C1 (racemic)"
assay_system = "TYK2 (Homo sapiens, UniProt P29597)"
quantity_kind = "Ki"
numeric_readout = 29.1

[[record]]
compound = "N#Cc1ccc(CN2CC[C@@H](n3cnc4cnc5[nH]ccc5c43)C2)cc1"
assay_system = "TYK2 (Homo sapiens, UniProt P29597)"
quantity_kind = "Ki"
numeric_readout = 169

[[record]]
compound = "c1cc2c(ncc3ncn(C4CCc5[nH]ncc5C4)c32)[nH]1 (stereo not drawn)"
assay_system = "TYK2 (Homo sapiens, UniProt P29597)"
quantity_kind = "Ki"
numeric_readout = 41.4

[[record]]
compound = "Cc1nc2cnc3[nH]ccc3c2n1[C@H]1CC[C@@H](C(C)(C)O)CC1"
assay_system = "TYK2 (Homo sapiens, UniProt P29597)"
quantity_kind = "Ki"
numeric_readout = 14.3

[[record]]
compound = "N#CCCN1CCC(n2c(CC(=O)N3CCCC3)nc3cnc4[nH]ccc4c32)CC1"
assay_system = "TYK2 (Homo sapiens, UniProt P29597)"
quantity_kind = "Ki"
numeric_readout = 352

[[record]]
compound = "O=C(CO)N1CCC(n2cnc3cnc4[nH]ccc4c32)CC1"
assay_system = "TYK2 (Homo sapiens, UniProt P29597)"
quantity_kind = "Ki"
numeric_readout = 55.6

[[record]]
compound = "c1cc2c(ncc3ncn(C4CCOCC4)c32)[nH]1"
assay_system = "TYK2 (Homo sapiens, UniProt P29597)"
quantity_kind = "Ki"
numeric_readout = 82.3


* * *

assay-system: JAK2 (Homo sapiens, UniProt O60674)
Construct: made in house; host or cells: SF9 insect cells (baculovirus)
Sequence (O60674 812-1132): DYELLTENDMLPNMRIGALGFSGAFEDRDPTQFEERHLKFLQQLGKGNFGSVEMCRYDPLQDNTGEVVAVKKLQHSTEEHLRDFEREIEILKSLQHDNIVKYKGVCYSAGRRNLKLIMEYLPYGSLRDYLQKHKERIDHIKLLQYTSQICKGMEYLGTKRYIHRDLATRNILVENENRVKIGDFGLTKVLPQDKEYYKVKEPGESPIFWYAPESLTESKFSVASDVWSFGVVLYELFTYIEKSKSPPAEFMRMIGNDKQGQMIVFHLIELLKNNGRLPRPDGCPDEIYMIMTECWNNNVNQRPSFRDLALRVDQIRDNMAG
experimental-details: JAK2 inhibition (Table 4)
Type: biochemical
reported-conditions: read-out: JAK2 Ki
quantity-kind: Ki (nM)

[[record]]
molecule = "CC(C)N1CCCC[C@H]1C(=O)N1CCC(n2cnc3cnc4[nH]ccc4c32)CC1"
numeric_readout = 1420

[[record]]
molecule = "CCC(C)S(=O)(=O)NCc1nc2cnc3[nH]ccc3c2n1C1CCN(CCC#N)CC1 (racemic)"
numeric_readout = 90.6

[[record]]
molecule = "c1cc2c(ncc3ncn([C@H]4[C@@H]5CNC[C@@H]54)c32)[nH]1"
numeric_readout = 886

[[record]]
molecule = "CC(O)c1nc2cnc3[nH]ccc3c2n1CC1CCCO1 (stereo not shown) [Example 700]"
numeric_readout = 617


* * *

assay-system: JAK3 (Homo sapiens)
Construct: made in house; host or cells: SF9 insect cells (baculovirus)
experimental-details: JAK3 inhibition (Table 4)
Format: biochemical
reported-conditions: read-out: JAK3 Ki
quantity-kind: Ki

[[record]]
compound = "FC(F)(F)CNC1CCC(n2nnc3cnc4[nH]ccc4c32)C1 (racemic)"
result = "143 nM"

[[record]]
compound = "c1cc2c(ncc3ncn([C@H]4CC[C@H](N5CCOCC5)CC4)c32)[nH]1"
result = "334 nM"

[[record]]
compound = "Cc1nc2cnc3[nH]ccc3c2n1C1CCN(Cc2cccnc2)CC1"
result = "2.63 nM"

[[record]]
compound = "NC(=O)Cc1nc2cnc3[nH]ccc3c2n1C1CCNCC1"
result = "302 nM"


* * *

assay-system: JAK3 (Homo sapiens, UniProt P52333)
Construct: made in house; host or cells: SF9 insect cells (baculovirus)
Sequence (P52333 783-1124): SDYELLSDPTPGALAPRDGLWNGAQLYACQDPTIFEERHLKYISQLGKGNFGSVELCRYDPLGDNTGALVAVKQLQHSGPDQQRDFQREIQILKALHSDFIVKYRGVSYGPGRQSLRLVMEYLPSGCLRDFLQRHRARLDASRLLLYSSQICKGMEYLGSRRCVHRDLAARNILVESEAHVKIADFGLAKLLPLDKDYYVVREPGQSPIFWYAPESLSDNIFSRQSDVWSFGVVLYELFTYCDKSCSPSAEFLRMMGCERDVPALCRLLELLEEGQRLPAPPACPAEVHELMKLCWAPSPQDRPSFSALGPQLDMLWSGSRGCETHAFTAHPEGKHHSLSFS
experimental-details: JAK3 inhibition (Table 4)
Assay type: biochemical
reported-conditions: read-out: JAK3 Ki
Structures can show the parent of a compound that is named as a salt.
quantity-kind: Ki (nM)

[[record]]
molecule = "C[C@@H](O)c1nc2cnc3[nH]ccc3c2n1C1CCCC(C#N)C1 (mixture of isomers) [Example 648]"
quantity_kind = "Ki"
numeric_readout = 119

[[record]]
molecule = "OCc1nc2cnc3[nH]ccc3c2n1C1CCN(Cc2cccnc2)CC1 [Example 278]"
quantity_kind = "Ki"
numeric_readout = 6.41

[[record]]
molecule = "NC1CCCC(n2cnc3cnc4[nH]ccc4c32)C1 (single isomer, unassigned) [Example 368]"
quantity_kind = "Ki"
numeric_readout = 419

[[record]]
molecule = "O=C([C@H]1CCCN1)N1CCC(n2cnc3cnc4[nH]ccc4c32)CC1 [Example 248]"
quantity_kind = "Ki"
numeric_readout = 1160

[[record]]
molecule = "N[C@H]1CC[C@@H](n2cnc3cnc4[nH]ccc4c32)CC1 [Example 289]"
quantity_kind = "Ki"
numeric_readout = 79.5

[[record]]
molecule = "Cc1nc2cnc3[nH]ccc3c2n1C1CCN(CCF)CC1 [Example 513]"
quantity_kind = "Ki"
numeric_readout = 7.63

[[record]]
molecule = "O=C(Cc1nc2cnc3[nH]ccc3c2n1C1CCN(Cc2ccccc2)CC1)N1CC(F)(F)C1 [Example 259]"
quantity_kind = "Ki"
numeric_readout = 11.7

[[record]]
molecule = "CC(=O)NCc1nc2cnc3[nH]ccc3c2n1C1CCN(CC(F)(F)F)CC1 [Example 920]"
quantity_kind = "Ki"
numeric_readout = 86.5

[[record]]
molecule = "N#CCCN1CCC(n2c(Cc3ccc(C(N)=O)cc3)nc3cnc4[nH]ccc4c32)CC1 [Example 406]"
quantity_kind = "Ki"
numeric_readout = 614

[[record]]
molecule = "NC1CCCC(n2cnc3cnc4[nH]ccc4c32)C1 (single isomer, unassigned) [Example 367]"
quantity_kind = "Ki"
numeric_readout = 453

[[record]]
molecule = "CS(=O)(=O)NCc1nc2cnc3[nH]ccc3c2n1C1CCN(CCC#N)CC1 [Example 208]"
quantity_kind = "Ki"
numeric_readout = 171

[[record]]
molecule = "CC(=O)N(C)CCc1nc2cnc3[nH]ccc3c2n1C1CCCCC1 [Example 802]"
quantity_kind = "Ki"
numeric_readout = 79.5

[[record]]
molecule = "CCN1CCC(n2nnc3cnc4[nH]ccc4c32)C(F)(F)C1 (racemic) [Example 533]"
quantity_kind = "Ki"
numeric_readout = 48.8

[[record]]
molecule = "CC(F)CN1CCC(n2c([C@@H](C)O)nc3cnc4[nH]ccc4c32)CC1 (stereo partly shown) [Example 697]"
quantity_kind = "Ki"
numeric_readout = 36.1

[[record]]
molecule = "C[C@@H](O)c1nc2cnc3[nH]ccc3c2n1[C@H]1CC[C@H](C#N)CC1 [Example 641]"
quantity_kind = "Ki"
numeric_readout = 254

[[record]]
molecule = "OC[C@H](O)c1nc2cnc3[nH]ccc3c2n1C1CCCCC1 [Example 858]"
quantity_kind = "Ki"
numeric_readout = 52.4

[[record]]
molecule = "FC1CNCCC1n1cnc2cnc3[nH]ccc3c21 (racemic) [Example 520]"
quantity_kind = "Ki"
numeric_readout = 412

[[record]]
molecule = "CCC(C)S(=O)(=O)NCc1nc2cnc3[nH]ccc3c2n1C1CCN(CCC#N)CC1 (racemic) [Example 502]"
quantity_kind = "Ki"
numeric_readout = 105

[[record]]
molecule = "C[C@@H](O)c1nc2cnc3[nH]ccc3c2n1C1CCN(CC(=O)N2CCCC2)CC1 [Example 872]"
quantity_kind = "Ki"
numeric_readout = 998

[[record]]
molecule = "Cc1nc2cnc3[nH]ccc3c2n1C1CC2CCC1C2 (stereo not shown) [Example 121a]"
quantity_kind = "Ki"
numeric_readout = 7.35

[[record]]
molecule = "CN(Cc1nc2cnc3[nH]ccc3c2n1C1CCN(Cc2ccccc2)CC1)S(C)(=O)=O [Example 203]"
quantity_kind = "Ki"
numeric_readout = 104

[[record]]
molecule = "N#CCCN1CCC(n2c(COC3CCOCC3)nc3cnc4[nH]ccc4c32)CC1 [Example 837]"
quantity_kind = "Ki"
numeric_readout = 114

[[record]]
molecule = "CC1CN(Cc2ccccc2)CCC1n1cnc2cnc3[nH]ccc3c21 (racemic) [Example 150, dihydrochloride]"
quantity_kind = "Ki"
numeric_readout = 17.7

[[record]]
molecule = "COC(=O)N(C)[C@H]1CC[C@H](n2cnc3cnc4[nH]ccc4c32)CC1 [Example 143]"
quantity_kind = "Ki"
numeric_readout = 182

[[record]]
molecule = "CC(C)(C)OC(=O)N1CCC[C@@H](n2cnc3cnc4[nH]ccc4c32)C1 [Example 349]"
quantity_kind = "Ki"
numeric_readout = 120

